B1: EEHEE_rd4_0469 (parent)
chain: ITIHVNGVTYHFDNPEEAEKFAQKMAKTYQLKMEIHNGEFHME

# Variants of: B1
# Test description: folding stability dG (cDNA display proteolysis); higher = more stable
# Settings: PBS, room temperature
Measured folding stability dG determines class: LOW (below 0.8 kcal/mol), MID (0.8 kcal/mol to below 1 kcal/mol), HIGH (1 kcal/mol or more)

Solved entries:
{"Mutant label": "Y29D", "Assigned label": "HIGH"}
{"Mutant label": "L31Q", "Assigned label": "MID"}
{"Mutant label": "F12C", "Assigned label": "HIGH"}

# bin lookup: classify I1E by its folding stability dG
LOW

# bin lookup: classify H41Y by its folding stability dG
HIGH
